Assay: Oral bioavailability in rats, Method B
Format: in vivo
Details: male, rat; plasma, Sprague Dawley rats, 10 mg/kg iv, Method B; read-out: AUC0-last (iv) (converted)
OBSERVATION TYPE: AUC(0-t) (ng·h/mL)
API: value field is a number in ng·h/mL; no unit string.

These recorded examples may help you get a feel for the data.
compound="O=C1CCCCC1(c1ccccc1)N1CCCC1 (racemic)" observation_type=AUC(0-t) endpoint_unit=ng·h/mL result_number=1710
compound="[2H]C([2H])([2H])N[C@@]1(c2ccccc2)CCCCC1=O [Compound 88R]" observation_type=AUC(0-t) endpoint_unit=ng·h/mL result_number=1670
compound="O=C1CCCC[C@@]1(c1ccccc1)N1CCC1 [Compound 84S]" observation_type=AUC(0-t) endpoint_unit=ng·h/mL result_number=482
compound="CN[C@@]1(c2ccccc2)CCCCC1=O [Compound 14R]" observation_type=AUC(0-t) endpoint_unit=ng·h/mL result_number=1960
compound="O=C1CCCC[C@]1(c1ccccc1)N1CCC1 [Compound 84R]" observation_type=AUC(0-t) endpoint_unit=ng·h/mL result_number=369

API: the following record is the query input.
Query :: Supply measured AUC(0-t) of COCCNC1(c2ccccc2)CCCCC1=O (racemic) in your reply.
Result :: 1710
